# Tested on: T47D
# ASSAY_PROTOCOL: NCI tumour cell line growth inhibition, 48 h
The source made the active and inactive calls. Cut-off read from the data, not from the text of the source: active = GI50 up to about 1.1 µM and inactive = higher.
RECORDED_ENDPOINT: GI50

Below, 3 compounds whose answers are already recorded.
COMPOUND	TESTED_TARGET	GI50
CN1C(=O)C2C=C3CCCCC3=CC2N(C)C1=O (stereo unspecified)	T47D	> 100 µM (inactive)
Nc1ncn(C2OC(COP(=O)(O)O)C(O)C2O)c(=O)n1 (stereo unspecified)	T47D	> 100 µM (inactive)
Cc1ccc(C2SC(=N)Nc3c2c(C)nn3C(=O)c2ccncc2)cc1 (stereo unspecified)	T47D	> 10 µM (inactive)

Asked: Which GI50 reading was recorded for the compound "N#Cc1nc(Sc2cnsn2)c(Sc2cnsn2)nc1C#N" ?
Given back: 6.25 µM (inactive)

Asked: Further, for "Cc1cc(N(CCC#N)CCC#N)ccc1C(=N/NC(=O)c1cc(Cl)ccc1O)/N=N/c1cccc(Cl)c1" ?
Given back: 15.4 µM (inactive)

Asked: Further, for CC1=CC(=O)C[C@]2(C)[C@@H](O)CC(C(C)CO)C[C@@H]12 (stereo partly specified) ?
Given back: > 100 µM (inactive)

###

Consider the following compounds and their measured GI50 readings.
# Tested on: COLO 205
# ASSAY_PROTOCOL: NCI tumour cell line growth inhibition, 48 h
Active and inactive are the calls of the source. Cut-off read from the data, not from the text of the source: active = GI50 up to about 1.1 µM and inactive = higher.

COMPOUND	RESULT
Cc1ccc2[nH]c3c(c2c1)C1CCC(C(C)(C)C)CC1C1C(=O)N(c2ccc4c(c2)OCO4)C(=O)C31 (stereo unspecified)	3.31 µM (inactive)

Asked: Which GI50 reading was recorded for the compound O=C(O)C(C(C(=O)O)P(=O)(O)O)P(=O)(O)O (stereo unspecified) ?
Given back: > 100 µM (inactive)

Asked: Further, for CCCCCC(/C=C/[C@@H]1[C@@H](C(O)CCCCCC(=O)OC)C(=O)C[C@H]1O[Si](C)(C)C(C)(C)C)OCOCCOC (stereo partly specified) ?
Given back: 18.9 µM (inactive)

Asked: Further, for "N=c1oc2ccc([N+](=O)[O-])cc2cc1C(=O)NCc1ccccc1" ?
Given back: 20.6 µM (inactive)

Asked: Further, for Nc1nc(Cl)cc(NCC2(CO)CC(CCc3ccccc3)C2)n1 (stereo unspecified) ?
Given back: > 71.9 µM (inactive)

Asked: Further, for O=c1cc(-c2ccccc2)oc2cc(O)cc(O)c12 [CHRYSIN] ?
Given back: 18.5 µM (inactive)

Asked: Further, for CC(=O)OC1CC2C(C)(C)OC(=O)CC(OC(C)=O)[C@]2(C)C2CCC3(C)C(=CCC3c3ccoc3)[C@]12C (stereo partly specified) ?
Given back: 14.1 µM (inactive)

Asked: Further, for COc1ccccc1N1C(=O)/C(=C\c2cccc(Oc3ccccc3)c2)S(=O)(=O)C1c1ccccc1 (stereo unspecified) ?
Given back: 23.1 µM (inactive)

###

# System: UACC-62
# ASSAY_PROTOCOL: NCI tumour cell line growth inhibition, 48 h
Calls of active or inactive are those of the source. Rule as the data show it: active = GI50 up to about 1.1 µM and inactive = higher.
Thanks in advance; please answer with one of these: T (active), F (inactive)

Asked: Look up the recorded call for O=C1CSC2(CC(/C=C/c3cccc([N+](=O)[O-])c3)=NN2c2cccc(S(=O)(=O)O)c2)N1c1nc2ccccc2s1 (stereo not drawn) in this test.
Given back: F

Asked: Further, for COc1cc([C@H]2Oc3c(OC)cc(CCCO)cc3[C@@H]2CO)ccc1O [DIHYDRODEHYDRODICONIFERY ALCOHOL] ?
Given back: F

Asked: Further, for "O=Cc1cc2c(cc1-c1c(C=O)ccc3c1OCO3)OCO2" ?
Given back: F

Asked: Further, for O=C(CC1SC(Nc2ccccc2Cl)=NC1=O)Nc1ccc(Cl)cc1Cl (stereo not drawn) ?
Given back: F

Asked: Further, for "CS(=O)(=O)N(CCC#N)c1ccc(C=O)cc1" ?
Given back: F

Asked: Further, for "O=C1C(Cl)=C(Nc2ccc(OC(F)(F)F)cc2)C(=O)c2c(O)ccc(O)c21" ?
Given back: T

Asked: Further, for "Nc1cc2c3c(cccc3c1)C(=O)N(CCN1CCN(CCN3C(=O)c4cccc5cc(N)cc(c45)C3=O)CC1)C2=O" ?
Given back: F

Asked: Further, for "CN1CNc2nc(N)n(C)c(=O)c2C1" ?
Given back: F

Asked: Further, for Cc1ccc(C2SC(=N)Nc3c2c(C)nn3C(=O)c2ccncc2)cc1 (stereo not drawn) ?
Given back: F

Asked: Further, for Clc1cccc(C2ON=C(c3ccccc3)N2C23CC4CC(CC(C4)C2)C3)c1Cl (stereo not drawn) ?
Given back: F

Asked: Further, for "CC1(C)CCC[C@]2(C)[C@@H](C=O)C(C=O)=CC[C@@H]12" ?
Given back: F

Asked: Further, for COc1ccccc1N1C(=O)/C(=C\c2cccc(Oc3ccccc3)c2)S(=O)(=O)C1c1ccccc1 (stereo not drawn) ?
Given back: F

Asked: Further, for "COP(=O)(OC)/C(=N\Nc1ccc([N+](=O)[O-])cc1)NCc1ccccc1" ?
Given back: F

###

Consider the following molecules and their measured GI50 readings.
# Tested on: NCI-H226
# ASSAY_PROTOCOL: NCI tumour cell line growth inhibition, 48 h
Activity calls are given as the source filed them. Cut-off read from the data, not from the text of the source: active = GI50 up to about 1.1 µM and inactive = higher.

MOLECULE	GI50
CCN(CC)CCNc1ccc([N+](=O)[O-])c2nc3ccc(OC)cc3c(N)c12	2.32 µM (inactive)

Consider now this further molecule.
Asked: Which GI50 reading was recorded for the molecule "N/C(S)=N/N=C/c1ccc(N)cn1" ?
Given back: 4.24 µM (inactive)

###

# Tested on: NCI-H460
# ASSAY_PROTOCOL: NCI tumour cell line growth inhibition, 48 h
Active and inactive are the calls of the source. Rule as the data show it: active = GI50 up to about 1.1 µM and inactive = higher.
RECORDED_ENDPOINT: GI50

COMPOUND	GI50
COc1cc([C@H]2Oc3c(OC)cc(CCCO)cc3[C@@H]2CO)ccc1O [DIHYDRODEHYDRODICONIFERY ALCOHOL]	> 100 µM (inactive)
C=CCOC1(CC=C)C(=O)OC2C(O)COC21O (stereo not given)	> 100 µM (inactive)
CCOC(=O)Cc1nc2ccc3c(c2nc1O)C(=O)c1ccccc1C3=O	35.4 µM (inactive)
O=C1Nc2ccccc2/C1=N/NC(=S)Nc1ccccc1Cl	0.735 µM (active)
CC(=O)OC1CC2C(C)(C)OC(=O)CC(OC(C)=O)[C@]2(C)C2CCC3(C)C(=CCC3c3ccoc3)[C@]12C (stereo not given in full)	21.4 µM (inactive)
Cc1cc(Cl)ccc1Nc1nc2c(s1)C(=O)c1ccccc1C2=O	3.32 µM (inactive)

Asked: Which GI50 reading was recorded for the compound "C=CCn1cc(C(=O)NC(=O)NCCCCCOC(=O)CCCCCCCCCCC(=O)OCCCCCNC(=O)NC(=O)c2cn(CC=C)c(=O)n(C)c2=O)c(=O)n(C)c1=O" ?
Given back: > 100 µM (inactive)

Asked: Further, for COC(=O)C1C(C(=O)OC)C1(Br)CBr (stereo not given) ?
Given back: > 100 µM (inactive)

Asked: Further, for "COc1c(NC(C)=O)cc(C)cc1NC(C)=O" ?
Given back: > 100 µM (inactive)

Asked: Further, for "N[C@H](C(=O)O)[C@@H]1CC(Br)=NO1" ?
Given back: 42.2 µM (inactive)

Asked: Further, for "CCOC(=O)c1c(NC(=O)c2cccs2)sc2c1CCC2" ?
Given back: > 100 µM (inactive)

###

# System: NCI-H23
# ASSAY_PROTOCOL: NCI tumour cell line growth inhibition, 48 h
Calls of active or inactive are those of the source. No stated cut-off is given here; in the data, active = GI50 up to about 1.1 µM and inactive = higher.
Thanks in advance; please answer with one of these: active, inactive

Worked set:
COMPOUND	ASSIGNED_CLASS
CC(=O)O[C@H]1C(=O)[C@@]2(C)C(C(OC(=O)c3ccccc3)[C@]3(O)CC(OC(=O)C(O)C(NC(=O)c4ccc(C(F)(F)F)cc4)c4ccccc4)C(C)=C1C3(C)C)[C@]1(OC(C)=O)CO[C@@H]1C[C@@H]2O (stereo not given in full)	active
COc1ccc(/C=C\c2cc(OC)c(OC)c(OC)c2)cc1OCC(=O)O	inactive
C=CCNC(=O)/C=C\C(=O)O	inactive

Asked: Look up the recorded call for "Cn1c2ncccc2n2c(=O)cc(O)cc12" in this test.
Given back: inactive

Asked: Further, for c1ccc(CC2COC(c3cccs3)=N2)cc1 (stereo not given) ?
Given back: inactive

Asked: Further, for CCC(C)SC1SCC2C(=O)N(C)C3(CC3C)C(=O)OCC(NC(=O)c3nc4ccccc4cc3O)C(=O)NC(C)C(=O)N(C)C1C(=O)N(C)C1(CC1C)C(=O)OCC(NC(=O)c1nc3ccccc3cc1O)C(=O)NC(C)C(=O)N2C (stereo not given) ?
Given back: active

Asked: Further, for "COc1cc(-c2nnc3n2NC=C(C(=O)O)S3)cc(OC)c1OC" ?
Given back: inactive

###

# Test system: MOLT-4
# ASSAY_PROTOCOL: NCI tumour cell line growth inhibition, 48 h
The source made the active and inactive calls. Rule as the data show it: active = GI50 up to about 1.1 µM and inactive = higher.
Consider the following compounds and their measured GI50 readings.

Below, 2 compounds whose answers are already recorded.
COMPOUND	GI50
Cc1ccc(C2(O)CS/C(=N\C34CC5CC(CC(C5)C3)C4)N2C(P(=O)(O)O)P(=O)(O)O)cc1 (stereo not drawn)	37.9 µM (inactive)
COc1cc(-c2ccc(/N=N/c3c(S(=O)(=O)O)cc4cc(S(=O)(=O)O)cc(N)c4c3O)c(OC)c2)ccc1/N=N/c1c(S(=O)(=O)O)cc2cc(S(=O)(=O)O)cc(N)c2c1O	> 82.6 µM (inactive)

Consider now this further compound.
Asked: Record COc1cc(C2[C@H]3C(=O)N(c4ccc(Cc5ccc(N6C(=O)[C@@H]7ON(c8ccccc8)C(c8cc(OC)c(OC)c(OC)c8)[C@@H]7C6=O)cc5)cc4)C(=O)[C@H]3ON2c2ccccc2)cc(OC)c1OC (stereo partly drawn) : what is its GI50 with MOLT-4?
Given back: > 100 µM (inactive)
